experiment: Antagonistic activity against N-methyl-D-aspartate glutamate receptor induced cGMP in rat cerebellar slices..; format: functional
Entries annotated with measured IC50

- molecule: "O=C(O)c1cc(O)c2ccc(Cl)cc2n1"
  endpoint-unit: "µM"
  IC50: 8
- molecule: "O=C(O)CNc1cc(C(=O)O)nc2cc(Cl)cc(Cl)c12"
  endpoint-unit: "µM"
  IC50: 3.6
- molecule: "O=C(O)COc1cc(C(=O)O)nc2cc(Cl)cc(Cl)c12"
  endpoint-unit: "µM"
  IC50: 225
- molecule: "O=C(O)c1cc(O)c2c(Cl)cc(Cl)cc2n1"
  endpoint-unit: "µM"
  IC50: 3.5

Values were extracted from ChEMBL document CHEMBL1125021.
